Test system: Plasmodium berghei
method description: Luciferase/luciferin-expressing antifolate-resistant parasites were used to infect a culture of HepG2 cells that were pre-incubated with compounds. Infected hepatocytes emit light due to the luciferase reaction. Assay results are presented as the percent inhibition of light emission compared to control. […]
Assay type: functional
condition label: sporozoite, PBLUC_HILL_SLOPE 2.73, PBLUC_R_SQUARED 0.732, read-out: LUCIFERASE INFECTION ASSAY - IC50
parameter measured: IC50 (µM)
Express the result in µM but write the number alone.

Lookup: Need IC50 of Cc1ccc(-n2[nH]c(C)c(C=Nc3ccc(OC(F)(F)F)cc3)c2=O)cc1 , thanks.
Found: 4.57

* * *

Tested on: Plasmodium berghei
method description: Luciferase/luciferin-expressing antifolate-resistant parasites were used to infect a culture of HepG2 cells that were pre-incubated with compounds. Infected hepatocytes emit light due to the luciferase reaction. Assay results are presented as the percent inhibition of light emission compared to control. […]
Type: functional
condition label: sporozoite, FFLUC_HILL_SLOPE 0.259, FFLUC_R_SQUARED 0.0893, HEPG2TOX_HILL_SLOPE 15, HEPG2TOX_R_SQUARED 0.814, PBLUC_HILL_SLOPE 11.2, PBLUC_R_SQUARED 0.466, read-out: LUCIFERASE INFECTION ASSAY - IC50
parameter measured: pIC50
A value of pIC50 is the negative decimal logarithm of a concentration given in moles per litre.

Lookup: Need pIC50 of CC(C)NC(=O)c1c(NC(=O)c2ccc(Cl)cc2Cl)nc2ccccn12 , thanks.
Found: 5.51

* * *

System: Plasmodium berghei
method description: Luciferase/luciferin-expressing antifolate-resistant parasites were used to infect a culture of HepG2 cells that were pre-incubated with compounds. Infected hepatocytes emit light due to the luciferase reaction. Assay results are presented as the percent inhibition of light emission compared to control. […]
Assay type: functional
condition label: sporozoite, HEPG2TOX_HILL_SLOPE 1.28, HEPG2TOX_R_SQUARED 0.688, PBLUC_HILL_SLOPE 2.8, PBLUC_R_SQUARED 0.756, read-out: LUCIFERASE INFECTION ASSAY - IC50
parameter measured: IC50 (nM)
Express the result in nM but write the number alone.

Lookup: Please state recorded IC50 (tested on Plasmodium berghei) of COc1cc(C)c(CN2CCC(c3nc4ccccc4s3)CC2)cc1OC
Found: 2500

* * *

Tested on: Plasmodium berghei
method description: Luciferase/luciferin-expressing antifolate-resistant parasites were used to infect a culture of HepG2 cells that were pre-incubated with compounds. Infected hepatocytes emit light due to the luciferase reaction. Assay results are presented as the percent inhibition of light emission compared to control. […]
Assay type: functional
condition label: sporozoite, HEPG2TOX_HILL_SLOPE 1.81, HEPG2TOX_R_SQUARED 0.969, PBLUC_HILL_SLOPE 2.01, PBLUC_R_SQUARED 0.65, read-out: LUCIFERASE INFECTION ASSAY - IC50
parameter measured: IC50 (nM)
Express the result in nM but write the number alone.

Lookup: Please state recorded IC50 (tested on Plasmodium berghei) of CN(C)c1ccc(-c2cnc3ccc(NCc4ccc5c(c4)OCO5)nn23)cc1
Found: 1200

* * *

Test system: Plasmodium berghei
method description: Luciferase/luciferin-expressing antifolate-resistant parasites were used to infect a culture of HepG2 cells that were pre-incubated with compounds. Infected hepatocytes emit light due to the luciferase reaction. Assay results are presented as the percent inhibition of light emission compared to control. […]
Format: functional
condition label: sporozoite, PBLUC_HILL_SLOPE 3.14, PBLUC_R_SQUARED 0.463, read-out: LUCIFERASE INFECTION ASSAY - IC50
parameter measured: pIC50
A value of pIC50 is the negative decimal logarithm of a concentration given in moles per litre.

Lookup: Need pIC50 of FC(F)(F)c1cc(N/N=C2/CCSc3sccc32)cc(C(F)(F)F)c1 , thanks.
Found: 5.38
